Several reports have described IC50 for Tyrosine-protein kinase JAK2 (Homo sapiens, UniProt O60674); a selection of those results is presented here.

Cc1cnc2nc1NCCCCNC(=O)c1ccc(cc1F)-c1cnc(F)c(c1)N2	101 to 1000 nM
CCC(CC)n1cc(-c2nc(-c3cnn([C@@H]4CCC[C@H]4O)c3)cn3nccc23)cn1 (single isomer, unassigned)	10 to 100 nM
N#Cc1cc(-c2ncnc(Nc3ccc(N4CCN(C5COC5)CC4)cc3)n2)cc(F)c1OC1CCS(=O)(=O)CC1	≥ 1000 nM
COc1cc(Nc2nccc(Nc3cccc(C4(C#N)CC4)c3)n2)cc(OC)c1OC	< 10 nM
C[C@]12O[C@H]([C@H](O)[C@H](O)[C@H]1O)n1c3ccccc3c3c4c(c5c6ccccc6n2c5c31)C(=O)NC4=O	0.5 nM
CCC(=O)c1cnc(Nc2ccc(O[C@@H]3CCN(C)C3)c(C)n2)cc1Nc1cccc(-c2ncn(C)n2)c1OC	≥ 500 nM

Attention now shifts to the item below.
Given the compound `O=C(Nc1nc2cccc(-c3ccc(CN4CCCCC4)cc3)n2n1)C1CC1` , what is its reported IC50?
6450 nM

###

IC50 for Tyrosine-protein kinase JAK2 (Homo sapiens, UniProt O60674), merged from several publications.

C[C@H]1C[C@@H](Nc2c(-c3ncc(S(C)(=O)=O)s3)cnc3[nH]ccc23)CN(C(=O)CC#N)C1	≤ 0.01 µM

Can you look up the measured IC50 of `COc1cc(Nc2ncnc(-c3ccc(O[C@H]4CCN(C(=O)[C@@H](O)CO)C[C@H]4F)c(C#N)c3)n2)cnc1N1CCN(C2COC2)CC1` for me?
≥ 1 µM

Consider next the compound CCC(Cn1ccc2cnc(Nc3cnn(CC(=O)OC(C)C(C)O)c3)nc21)C(C)C (stereo not drawn) in the same way.
< 0.1 µM

`O=C1NCCCCOCc2cc(ccc2N2CCOCC2)Nc2ncc(Cl)c(n2)-c2ccc1cc2Cl` ?
0.101 to 1 µM

Would you kindly repeat that for N#CCC(C1CCNCC1)n1cc(-c2ccnc(Nc3ccc(N4CCOCC4)cc3)n2)cn1 (racemic) ?
< 0.1 µM

Query `Fc1cnc(Nc2ccc(OCCN3CCCC3)cc2)nc1NCc1ccco1` next
0.0991 µM

Input `N#CCC1(n2cc(-c3ccnc4[nH]ccc34)cn2)CN(C2CCN(C(=O)Nc3ccc(F)cc3Cl)CC2)C1`
0.05 to 0.1 µM

Would you mind doing N#CCC1(n2cc(-c3ccnc(Nc4ccc(-n5cccn5)cc4)n3)cn2)CC(C#N)C1 (single isomer, unassigned) as well?
< 0.1 µM

###

What follows is literature data on IC50 for Tyrosine-protein kinase JAK2 (Homo sapiens).

Some solved entries appear below for comparison.
N#Cc1cc(-c2ncnc(Nc3ccc(N4CCN(C5COC5)CC4)cc3)n2)ccc1O[C@H]1CCN(C(=O)c2nccnc2N)C[C@H]1F	54 nM
N#Cc1cc(-c2ncnc(Nc3ccc(N4CCN(C5COC5)CC4)cc3)n2)ccc1N1CC(O)C1	166 nM
CCC(=O)c1cnc(Nc2cnc(CN3CCN(C)CC3)cn2)cc1Nc1cccc(-c2ncn(C)n2)c1OC	≥ 500 nM

I have this molecule here, N#Cc1cc(-c2ncnc(Nc3ccc(N4CCN(C5COC5)CC4)cc3)n2)ccc1OCC1CNC(=O)O1 (stereo not shown) , and I need its recorded IC50.
161 nM

One more molecule: `N#CCC1(n2cc(-c3c(F)cnc4[nH]ccc34)cn2)CN(C2CCN(C(=O)c3ccncc3F)CC2)C1`
10 to 50 nM

And NC(=O)c1cnc(Nc2ccc3c(c2)NC[C@H](O)CO3)nc1NC12CC3CC(C1)C(O)C(C3)C2 (stereo partly shown) ?
< 10 nM

Could you do the same for `N#Cc1cc(-c2ncnc(Nc3ccc(N4CCN(C5COC5)CC4)cc3)n2)ccc1O[C@H]1CCN(C(=O)c2cccc(=O)[nH]2)C[C@H]1F` , please?
109 nM

Consider next the molecule `COCCO[C@H]1CNc2cc(Nc3ncc(C(N)=O)c(NC4CC4)n3)ccc2OC1` in the same way.
10 to 100 nM

Lookup Cn1cc(-c2cc3nccn3c(-c3ccn(C(CCF)C4CC4)c3)n2)cn1 (stereo not shown)
10 to 100 nM

Thanks! And `Cn1cc(-c2cc3nccn3c(-c3ccn(C4(CC#N)CN(CC(F)(F)F)C4)n3)n2)ccc1=O` ?
10 to 100 nM

Do the same for `N#CCC1(n2ccc(-c3ncnc4[nH]ccc34)c2)CN(C2CCN(C(=O)c3c(F)cc(C#N)cc3F)CC2)C1` please
50 to 100 nM

Another molecule to check: `CCC(CC)n1cc(-c2nc(-c3cnn(C4CN(C(=O)C(C)(C)O)C4)c3)cn3nccc23)cn1`
100 to 1000 nM

###

Reported IC50 against Tyrosine-protein kinase JAK2 (Homo sapiens), gathered from multiple publications, appears below.

The cases that follow already have their IC50 on record.
N#CCC1(n2ccc(-c3ncnc4[nH]ccc34)c2)CN(C2CCN(C(=O)c3nc(C(F)(F)F)cs3)CC2)C1	10 to 50 nM
CC(=O)N1CCC(C(CC#N)n2cc(-c3ccnc(Nc4ccc(N5CCOCC5)cc4)n3)cn2)CC1 (racemic)	< 100 nM
CCOC(=O)Cn1cc(Nc2ncc3ccn(CCC(C)C)c3n2)cn1	< 100 nM
Nc1ncnc2c1c(-c1cccc(OCC3CCCO3)c1F)cn2[C@H]1C[C@@H](CN2CCS(=O)(=O)CC2)C1 (mixture of isomers)	> 10000 nM

Recorded IC50 of `CCS(=O)(=O)N1CC(CC#N)(n2cc(-c3ccnc(Nc4ccc(C(=O)N5C6CC7CC5CC(C6)O7)cc4)n3)cn2)C1` , please.
< 100 nM

Let us now turn to COc1cnc(Nc2ccc(C(=O)N3CCCC3)cc2)nc1-c1cnn(C(CC#N)C2CCCC2)c1 (racemic)
< 100 nM

Thanks! And N#Cc1cc(-c2ncnc(Nc3ccc(N4CCN(C5COC5)CC4)cc3)n2)ccc1O[C@H]1CCN(C(=O)C2CNC(=O)N2)C[C@H]1F (stereo partly shown) ?
163 nM

###

// molecules with pIC50 on UniProt O60674, multi-source literature
pIC50: −log10 of the molar value.

COc1cc(F)cc(C#N)c1COc1ccc2cc1COCCCCNC(=O)c1ccc(c(N)c1)-c1ccnc(n1)N2	6.00 to 7.00

Any idea what its pIC50 is? The molecule is CN1CCC(N2C(=O)c3cc4nc(-c5c(NCC(O)COc6cccc(Cl)c6)cc[nH]c5=O)[nH]c4cc3C2=O)CC1 (centres unmarked)
5.30 to 6.30

Also check `CCC(=O)c1cnc(Nc2ncc(OCC3COC3)cc2F)cc1Nc1cccc(-c2ncn(C)n2)c1OC`
≤ 6.30

Param item: `N#CCC1(n2cc(-c3ccnc(Nc4ccc(N5CCOCC5)cc4)n3)cn2)CN(S(=O)(=O)C2CC2)C1`
> 7.00

Also N#CCC(C1CCCC1)n1cc(-c2ccnc(Nc3cccc(C(=O)NCCc4cccnc4)c3)n2)cn1 (racemic) , if possible.
> 7.00

And for `C[C@H](O)C(=O)N1CC[C@H](Oc2ccc(-c3ncnc(Nc4ccc5cnn(C)c5c4)n3)cc2C#N)[C@H](F)C1` ?
6.15

Quick one: `CCCS(=O)(=O)N[C@H]1C[C@@H](Nc2c(-c3nccs3)cnc3[nH]ccc23)C1`
7.00 to 8.00

Repeat with CN(C)C(=O)c1ccc(Nc2nccc(-c3cnn(C(CC#N)CC4CCN(S(=O)(=O)c5ccn(C)n5)CC4)c3)n2)cc1 (racemic)
> 7.00

# iterate: CCC(=O)c1cnc(Nc2cc(C(C)N(C)C)ncn2)cc1Nc1cccc(-c2ncn(C)n2)c1OC (centres unmarked)
≤ 6.30

###

A compilation of pIC50 values for Tyrosine-protein kinase JAK2 (Homo sapiens, UniProt O60674) from the published literature.
pIC50: −log10 of the molar value.

What pIC50 value was documented for this compound, `O=C(NCCC1CCCC1)c1noc2c1CN(c1ncnc3[nH]ccc13)CC2` ?
6.30 to 7.00

And for `CCC(=O)c1cnc(Nc2ccc(CN3CC4(CCO4)C3)cn2)cc1Nc1cccc(-c2ncn(C)n2)c1OC` ?
≤ 6.30

Continue with `CN(C)c1ccc(C(=O)N2CCC(N3CC(CC#N)(n4cc(-c5ncnc6[nH]ccc56)cn4)C3)CC2)c(F)c1C#N`
≥ 8.00

Same question for N#CCC(C1CCCC1)n1cc(-c2ccnc(Nc3ccc(N4CCOCC4=O)cc3)n2)cn1 (racemic) please.
> 7.00

Same lookup for `C[C@@H](NC(=O)c1cc(F)c(N2CC(CC#N)(n3cc(-c4ncnc5[nH]ccc45)cn3)C2)cc1F)C1CC1` , please.
≥ 8.00

Here is the next compound: `CCC(=O)c1cnc(Nc2ccc(C(C)(C)N(C)C)nn2)cc1Nc1cccc(-c2ncn(C)n2)c1OC`
≤ 6.30

Request: N#CCC(C1CCN(S(=O)(=O)c2ccccc2)CC1)n1cc(-c2ccnc(Nc3ccc(N4CCOCC4)cc3)n2)cn1 (racemic)
> 7.00

Likewise for `Nc1cc2ccc1-c1ccnc(n1)Nc1cc(cc(N3CCSCC3)c1)COCCCCNC2=O` ?
7.00 to 7.96

What do we get for N#CCC(C1CCCC1)n1cc(-c2ccnc(Nc3cccc(NC(=O)CN4CCN(CCO)CC4)c3)n2)cn1 (racemic) ?
> 7.00

Repeat with `CC(=O)Nc1ccc(Nc2nccc(-c3cnn(C4(CC#N)CN(S(=O)(=O)C5CC5)C4)c3)n2)cc1`
> 7.00
